tested.target: mouse P2RY14 (Mus musculus)
Construct: expressed in transfected cells
Sequence (Q9ESG6 whole entry, one chain of several): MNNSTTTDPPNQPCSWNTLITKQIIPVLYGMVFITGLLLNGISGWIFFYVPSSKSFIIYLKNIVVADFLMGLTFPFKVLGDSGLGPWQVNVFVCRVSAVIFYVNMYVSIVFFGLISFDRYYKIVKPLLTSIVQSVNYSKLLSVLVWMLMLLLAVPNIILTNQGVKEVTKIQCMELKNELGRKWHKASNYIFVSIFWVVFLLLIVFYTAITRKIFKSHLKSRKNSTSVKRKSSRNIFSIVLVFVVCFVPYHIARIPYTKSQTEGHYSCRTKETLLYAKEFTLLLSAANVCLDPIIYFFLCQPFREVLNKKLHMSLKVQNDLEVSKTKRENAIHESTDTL
assay: FLIPR whole cell Ca2+ agonist assay, HEK cells expressing mouse P2RY14 and Gqi5
Type: cell-based

[
  {
    "compound": "CC(=O)N[C@H]1[C@@H](OP(=O)(O)OP(=O)(O)OC[C@H]2O[C@@H](n3ccc(=O)[nH]c3=O)[C@H](O)[C@@H]2O)O[C@H](CO)[C@@H](O)[C@@H]1O",
    "activation of P2RY14 (Ca2+ signaling)": "activated"
  },
  {
    "compound": "O=P(O)(O)OP(=O)(O)OC[C@H]1O[C@@H](n2cnc3c(O)ncnc32)[C@H](O)[C@@H]1O [inosine diphosphate]",
    "activation of P2RY14 (Ca2+ signaling)": "activated"
  },
  {
    "compound": "O=c1ccn([C@@H]2O[C@H](COP(=O)(O)OP(=O)(O)OP(=O)(O)O)[C@@H](O)[C@H]2O)c(=O)[nH]1 [UTP, Uridine 5′-triphosphate]",
    "activation of P2RY14 (Ca2+ signaling)": "activated"
  }
]

Source of measurements: patent US20090148850A1
